Exercise: for every item that follows, state its recorded MIC.
Test system: Haemophilus influenzae
assay-info: Compound was tested in vitro for its antibacterial activity against Haemophilus influenzae NCTC 4560 strain.
Type: functional

# input State recorded MIC with Haemophilus influenzae, entry CCC[C@H](NC(=O)[C@H](CCC)NC(=O)[C@@H](NC)C(C)C)C(=O)N[C@H](C)P(=O)(O)O , no comment.
# output 0.25 µg/mL

# input // fetch MIC for C[C@H](N)C(=O)N[C@@H](C)P(=O)(O)O [ALAFOSFALIN] ; system: Haemophilus influenzae
# output 4 µg/mL

# input Under Haemophilus influenzae, report MIC for CCC[C@H](N)C(=O)N[C@H](C)P(=O)(O)O
# output 4 µg/mL

# input Recall the reported MIC of CCC[C@H](NC(=O)CNC)C(=O)N[C@@H](CCC)C(=O)N[C@H](C)P(=O)(O)O when tested on Haemophilus influenzae.
# output 0.015 µg/mL

# input Give MIC only, for CCC[C@H](NC)C(=O)N[C@@H](CCC)C(=O)N[C@@H](CCC)C(=O)N[C@H](C)P(=O)(O)O , using Haemophilus influenzae data.
# output 0.25 µg/mL

====

Tested on: Enterobacter
assay-info: Compound was tested for its antibacterial activity against Enterobacter 250002 strain.
Assay type: functional
measured-parameter: log10 MIC (log10 of the value in µg/mL)
Each number you see is log10 of MIC, and the unit inside the log is µg/mL.

# input Give the reported log10 MIC for this compound. C[C@@H](NC(=O)[C@@H](N)CCCCN=C(N)N)P(=O)(O)O
# output 0.30

# input Given C[C@@H](NC(=O)[C@@H](N)CCCN=C(N)N)P(=O)(O)O , respond with its log10 MIC.
# output 0.00

# input For the compound CCCSC[C@H](N)C(=O)N[C@H](C)P(=O)(O)O , give its measured log10 MIC value.
# output -1.22

# input Quote log10 MIC reported for CCC[C@H](N)C(=O)N[C@H](C)P(=O)(O)O please.
# output -0.60

# input Assign log10 MIC to the following record: C[C@H](N)C(=O)N[C@@H](C)P(=O)(O)O [ALAFOSFALIN]
# output 0.00

# input Please give measured log10 MIC of the following entry: CSC[C@H](N)C(=O)N[C@H](C)P(=O)(O)O
# output -1.52

# input State, in one line, measured log10 MIC of C[C@@H](NC(=O)[C@@H](N)CCC/N=C(\N)N[N+](=O)[O-])P(=O)(O)O
# output 0.90

# input Quickly give me recorded log10 MIC for C[C@@H](NC(=O)[C@@H](N)CC[S+](C)[O-])P(=O)(O)O (stereo partly specified)
# output 1.51

# input Report log10 MIC, nothing else, for this compound: C[C@@H](NC(=O)[C@@H](N)Cc1cccs1)P(=O)(O)O
# output 0.00

====

Exercise: for every item that follows, state its recorded MIC.
Test system: Enterococcus faecalis
assay-info: Compound was tested in vitro for its antibacterial activity against Streptococcus faecalis FS5 strain.
Assay type: functional
Entry rule: numbers only, all in µg/mL.

# input Dear colleague, please send me the reported MIC for C[C@@H](NC(=O)[C@@H](N)CCCN=C(N)N)P(=O)(O)O when you can.
# output 16

# input Return value of MIC for input CCC[C@H](NC)C(=O)N[C@@H](CCC)C(=O)N[C@@H](CCC)C(=O)N[C@H](C)P(=O)(O)O , no commentary.
# output 0.06

# input Item CCC[C@H](NC(=O)CNC)C(=O)N[C@@H](CCC)C(=O)N[C@H](C)P(=O)(O)O : provide MIC
# output 0.12

# input Determine its reported MIC: CCC[C@H](N)C(=O)N[C@H](C)P(=O)(O)O
# output 1

# input Provide one value: measured MIC of CCC[C@H](NC(=O)[C@H](CC(C)C)NC)C(=O)N[C@@H](CCC)C(=O)N[C@H](C)P(=O)(O)O
# output 0.25

# input Name the recorded MIC of the compound listed here: C[C@H](N)C(=O)N[C@@H](C)C(=O)N[C@H](C)P(=O)(O)O
# output 0.06

# input Give reported MIC value for C[C@H](N)C(=O)N[C@@H](C)C(=O)N[C@@H](C)C(=O)N[C@H](C)P(=O)(O)O
# output 0.25

# input Dear colleague, please send me the reported MIC for CNCC(=O)N[C@@H](C)C(=O)N[C@@H](C)C(=O)N[C@H](C)P(=O)(O)O when you can.
# output 0.06

# input In one line, give reported MIC of the entry C[C@H](N)C(=O)N[C@@H](C)P(=O)(O)O [ALAFOSFALIN] .
# output 2

# input // fetch MIC given entry CCC[C@H](NC(=O)[C@H](CCC)NC(=O)[C@@H](NC)C(C)C)C(=O)N[C@H](C)P(=O)(O)O
# output 8
